Values compiled from patent US7205382B2.

Tested on: human IgG-Fc
Test: Cellulose-immobilized 13-mer peptide variants incubated with human IgG-Fc, anti-human IgG-AP detection
Format: binding
Set-up: key: No binding of immunoglobulin for the defined peptide variant, detection negative: 0; Binding of immunoglobulin for the defined peptide variant, detection positive: +
Conditions: IgG-Fc 1 μg/ml in blocking buffer, 3 h room temperature
Bridge positions count the residues as written; N and C are the ends. Ends that are not written are not given here. cellulose = not defined here; βAla = NCCC(=O)O
quantity: Result for incubation with human IgG-Fc (immunoglobulin binding detection)
Keep it simple and answer with nothing but the number.

Query: I'd like to know its Result for incubation with human IgG-Fc (immunoglobulin binding detection). The substance in question is 03H: cellulose-bound 13-mer variant DCHWHLGELVWCT-(βA)(βA) (DCHWHLGELVWCT-{βAla-βAla-cellulose}; disulfide 2-12 (inferred); reading uncertain; also: printed as DCHWHLGELVWCT-(βA)(βA))
Result: 0
